System Under Test: p300 (Homo sapiens, UniProt Q09472)
Construct: host or cells: A549 P300 HiBit cells
Sequence (Q09472 whole entry): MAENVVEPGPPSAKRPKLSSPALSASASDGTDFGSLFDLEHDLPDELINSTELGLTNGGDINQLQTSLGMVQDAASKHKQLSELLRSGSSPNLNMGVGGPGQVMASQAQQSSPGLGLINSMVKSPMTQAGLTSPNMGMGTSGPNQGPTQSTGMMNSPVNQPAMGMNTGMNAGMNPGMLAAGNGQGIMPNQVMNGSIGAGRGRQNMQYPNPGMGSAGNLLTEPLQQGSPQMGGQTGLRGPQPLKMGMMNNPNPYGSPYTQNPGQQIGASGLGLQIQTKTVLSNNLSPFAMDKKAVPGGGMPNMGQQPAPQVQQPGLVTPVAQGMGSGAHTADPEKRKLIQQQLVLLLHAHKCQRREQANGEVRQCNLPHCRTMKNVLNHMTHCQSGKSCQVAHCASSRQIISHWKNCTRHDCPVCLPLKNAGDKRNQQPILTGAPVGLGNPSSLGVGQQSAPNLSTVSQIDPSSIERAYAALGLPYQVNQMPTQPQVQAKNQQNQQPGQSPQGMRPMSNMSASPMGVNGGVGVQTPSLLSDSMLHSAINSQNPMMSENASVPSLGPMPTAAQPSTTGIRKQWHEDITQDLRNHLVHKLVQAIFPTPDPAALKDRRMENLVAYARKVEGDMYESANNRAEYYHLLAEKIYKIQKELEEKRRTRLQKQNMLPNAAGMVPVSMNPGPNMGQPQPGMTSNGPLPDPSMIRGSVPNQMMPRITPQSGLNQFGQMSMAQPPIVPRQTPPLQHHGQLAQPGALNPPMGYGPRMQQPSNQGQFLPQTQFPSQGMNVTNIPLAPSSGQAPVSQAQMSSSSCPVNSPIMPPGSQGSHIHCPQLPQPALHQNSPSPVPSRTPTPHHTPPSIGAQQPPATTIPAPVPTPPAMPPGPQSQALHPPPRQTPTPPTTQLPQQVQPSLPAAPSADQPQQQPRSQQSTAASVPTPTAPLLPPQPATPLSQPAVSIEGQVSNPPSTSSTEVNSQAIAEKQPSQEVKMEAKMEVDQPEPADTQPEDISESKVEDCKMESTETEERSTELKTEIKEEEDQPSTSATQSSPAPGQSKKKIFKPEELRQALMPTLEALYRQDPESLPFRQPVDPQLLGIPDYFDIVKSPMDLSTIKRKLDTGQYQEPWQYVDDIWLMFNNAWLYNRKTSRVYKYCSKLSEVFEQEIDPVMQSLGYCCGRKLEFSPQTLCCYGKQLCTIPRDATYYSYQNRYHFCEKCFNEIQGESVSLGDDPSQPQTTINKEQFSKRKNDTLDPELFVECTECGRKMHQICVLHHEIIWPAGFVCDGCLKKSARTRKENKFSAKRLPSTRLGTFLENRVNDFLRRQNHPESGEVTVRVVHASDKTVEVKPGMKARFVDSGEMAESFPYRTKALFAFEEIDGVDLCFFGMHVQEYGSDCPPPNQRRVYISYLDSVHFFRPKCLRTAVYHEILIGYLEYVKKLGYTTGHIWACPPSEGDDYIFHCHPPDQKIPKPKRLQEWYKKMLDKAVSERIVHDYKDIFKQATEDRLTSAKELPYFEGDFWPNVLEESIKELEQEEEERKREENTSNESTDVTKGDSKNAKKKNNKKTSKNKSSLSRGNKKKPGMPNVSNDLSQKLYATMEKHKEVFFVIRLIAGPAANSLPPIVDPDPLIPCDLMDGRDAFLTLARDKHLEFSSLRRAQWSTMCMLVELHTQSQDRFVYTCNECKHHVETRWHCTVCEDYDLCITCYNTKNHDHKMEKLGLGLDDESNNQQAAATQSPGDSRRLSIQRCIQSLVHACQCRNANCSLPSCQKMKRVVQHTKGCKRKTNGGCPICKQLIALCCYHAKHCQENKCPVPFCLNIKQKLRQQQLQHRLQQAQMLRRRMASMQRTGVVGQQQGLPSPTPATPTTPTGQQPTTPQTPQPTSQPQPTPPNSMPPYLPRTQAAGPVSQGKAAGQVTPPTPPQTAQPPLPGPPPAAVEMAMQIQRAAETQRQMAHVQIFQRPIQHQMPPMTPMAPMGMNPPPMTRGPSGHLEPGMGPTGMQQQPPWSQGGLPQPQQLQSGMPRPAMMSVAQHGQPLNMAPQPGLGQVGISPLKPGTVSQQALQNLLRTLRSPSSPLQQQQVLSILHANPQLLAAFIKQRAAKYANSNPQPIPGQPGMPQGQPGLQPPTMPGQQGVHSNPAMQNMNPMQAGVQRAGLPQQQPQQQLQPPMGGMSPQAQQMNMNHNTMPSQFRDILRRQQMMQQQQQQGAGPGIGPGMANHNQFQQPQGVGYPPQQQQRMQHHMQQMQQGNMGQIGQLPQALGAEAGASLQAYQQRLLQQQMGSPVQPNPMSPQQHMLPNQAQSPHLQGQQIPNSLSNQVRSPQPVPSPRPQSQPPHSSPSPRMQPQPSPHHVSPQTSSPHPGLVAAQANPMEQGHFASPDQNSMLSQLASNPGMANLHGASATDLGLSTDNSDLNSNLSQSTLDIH
Test Name: P300 degradation, HiBit technology in A549 P300 HiBit cells (2 h)
Format: cell-based
Assay Context: A549 P300 HiBit cells, 2 hrs post treatment
Method: p300 and CBP degradation potency and Dmax were determined using in cell western (ICW) assay technology in H1299 cells or HiBit technology in A549 HiBit cells. A549 P300 HiBit and A549 CBP HiBit cells were plated in separate 384-well, TC treated, white-opaque, flat-bottomed microplate. […] After incubation, luminescent signal of each plate was measured using the Envision instrument (Perkin Elmer).
Property: DC50

Look over these answered cases.
* Cc1ccc(-c2ccc3c(c2)n(C)c(=O)n3C)c2cnc(-c3ccc(C(=O)NCC#Cc4ccc5occ(C6CCC(=O)NC6=O)c5c4)nc3)cc12 (stereo not drawn) [Example A72] | 1 to 9.9 nM
* [2H]C([2H])([2H])N(c1cnc(-c2cnc(C(=O)NCC#Cc3ccc4occ(C5CCC(=O)NC5=O)c4c3)c(C)c2)nc1)c1cc(C2CCOCC2)c2c(c1)n(C)c(=O)n2C (stereo not drawn) [Example A82] | 1 to 9.9 nM

What does the record list as DC50 for Cc1cc(-c2ncc3c(n2)OCCN3c2ccc3c(c2)n(C)c(=O)n3C)cnc1C(=O)NCC#Cc1cc2c([C@H]3CCC(=O)NC3=O)cccc2o1 [Example A174] ? 1 to 9.9 nM
